system: MDA-MB-435 melanoma; assay: NCI-60 one-dose screen, 48 h (100 = growth as untreated, 0 = no growth, -100 = all killed); details: 10 µM unless noted
The panel holds about 83,000 compounds, 20% with a hit somewhere; the sample as a whole holds those more often.
Record met whenever growth is at 30% or higher; record not met when lower.

Please review the following examples before continuing.
COc1ccc(/C=C(/C(=O)N2CCN(c3ccc(C)cc3)CC2)c2cc(OC)c(OC)c(OC)c2)cc1N = not met
CCN(CC)CCCC(C)Nc1c(C)cnc2cc(Cl)c(C)cc12 (stereo not given) = met
O=C(CN1C(=O)NC(c2ccccc2)(c2ccccc2)C1=O)c1ccc(N2CCCC2)cc1 = not met
O=C(Nc1cccc(Cn2c(=O)[nH]c3ccc(Oc4ncccn4)cc3c2=O)c1)c1cc(Cl)cc(Cl)c1 = met
Clc1ccc(I)c2ccccc12 = met

Is reported growth greater than or equal to 30% here: C[C@@H](c1ccc2c(c1)[nH]c1ccc(Cl)cc12)c1nc2ccc(Cl)cc2[nH]1
met

hey, is growth for this one >= 30%? COc1ccc2cnc(N)c(C#Cc3cc(C(=O)Nc4ccc(CN5CCN(C)CC5)c(C(F)(F)F)c4)cnc3C)c2c1
not met

----------
test system: UO-31 renal; assay: NCI-60 one-dose screen, 48 h; conditions: 10 µM unless noted
This is part of a sample that, as a whole, favours compounds with a hit. Of some 83,000 tested, about 20% had one in any assay. Active and inactive are the calls of the source. Rule for the calls: active = growth percent below 10; inactive = the rest.
Answer with one of the outcomes given here: y (active), n (inactive)

Check out these entries, answers already filled in.
CC(=O)N1N=C(c2ccc(Cl)cc2)CC1c1cn(-c2ccccc2)nc1-c1ccc([N+](=O)[O-])cc1 (stereo not given) = n
COC(=O)C(C)[C@H]1CC[C@@H]2[C@]1(C)CC=C1[C@]23C=C[C@]2(C[C@@H](OC(C)=O)CC[C@]12C)C(C(=O)OC)C3C(=O)OC (stereo not given in full) = n

What did this assay record as the result for CC(=O)/C(=C\c1c(-c2ccccc2)[nH]c2ccccc12)S(=O)(=O)c1ccccc1 ?
n

What did the test return for COc1cc2oc(-c3ccc(NC(=O)c4ccccc4)cc3)cc(=O)c2c(OC)c1OC ?
n

Name the outcome recorded for CC(C)C(=O)c1ccc(Cl)s1 in the assay.
n

Outcome? C=C(C)C(C(=O)OCC)(C(=O)OCC)C(C)C
n

Can you look up the reported call for Cc1nc2c(nnn2-c2ccccc2)c2nc(-c3ccc(Cl)cc3)oc(=O)c12 for me?
n

----------
system: HOP-62 NSCLC; assay: NCI-60 one-dose screen, 48 h; settings: 10 µM unless noted
This is part of a sample that, as a whole, favours compounds with a hit. Of some 83,000 tested, about 20% had one in any assay. Activity calls are given as the source filed them. How the source made its calls: active means growth percent below 10; inactive means the rest.
Classes to choose from: TRUE (active), FALSE (inactive)

O=C(Nc1ccc(-n2cc(-c3ccncc3)c(-c3ccc(Cl)c(O)c3)n2)cc1)c1ccc(Cl)c(C(F)(F)F)c1 = TRUE
N#Cc1c(N)nc(Nc2nc3ccccc3[nH]2)nc1-c1ccc(Cl)cc1 = FALSE
O=C(Nc1cccc(Cn2c(=O)[nH]c3ccc(Oc4ncccn4)cc3c2=O)c1)c1cc(Cl)cc(Cl)c1 = FALSE
COc1ccccc1CNCCCN1C(=O)c2ccc3c4c(ccc(c24)C1=O)C(=O)N(CCCNCc1ccccc1OC)C3=O = TRUE
CCCC(=O)Nc1ccccc1C(=O)O = FALSE
Cc1ccc(S(=O)(=O)Nc2cccc(Cn3c(=O)[nH]c4ccc(Oc5ncccn5)cc4c3=O)c2)cc1 = FALSE
Cc1ccc(NCc2cn(-c3ccc(C(=O)O)cc3)nc2-c2ccc(C(=O)O)cc2)cc1 = FALSE
N#CCc1ncc(-c2ccc(C(F)(F)F)cc2)c(NC2CCCCCC2)n1 = FALSE
[N-]=[N+]=Nc1ncc(-c2ccc(C(F)(F)F)cc2)c(NC2CCCCCC2)n1 = FALSE
CC(=O)/C(=C\c1c(-c2ccccc2)[nH]c2ccccc12)S(=O)(=O)c1ccccc1 = TRUE

Answer briefly: the call reported for CN(C)CCOC(=O)C(C)(C)C in this assay.
FALSE

Test call, this compound: COc1ccc(C(=O)N2N=C(c3ccc(Br)cc3)CC2c2cn(-c3ccccc3)nc2-c2ccccc2)cc1 (centres undefined)
FALSE

Please let me know the test result on file for COc1ccc2c(c1)cn1c3ccc(O)cc3[nH]c(=O)c21 .
FALSE

----------
Catalogue of molecules with associated growth
system: MDA-MB-231 breast; assay: NCI-60 one-dose screen, 48 h (100 = growth as untreated, 0 = no growth, -100 = all killed); conditions: 10 µM unless noted
Compounds without any hit were thinned out: in the full panel of roughly 83,000, 20% have a hit.
Write it as a number; the unit % goes unstated.

Solved entries:
Cc1ccc(S(=O)(=O)N/N=C2\CC3CCC2C3)cc1 (stereo unspecified) = 111
COc1cc2c(/C=C3\C(=O)Nc4ccc(Br)cc43)c(Cl)n(C)c2cc1C = 7.42
O=C(CCl)NC1c2ccccc2Oc2ccccc21 = 60.7
N=C(c1ccccc1)N(Cc1ccccc1)Cc1ccccc1 = 79.6
O=C1C(Br)=CC2C1C1C3CCC3C2(Br)C12OCCO2 (stereo unspecified) = 51.7

Next molecule, growth to be filled in.
So what does the record say about growth for N#CC1=C(N2CCOCC2)NC2c3ccccc3Sc3ccccc3N2C1=N (stereo unspecified) ?
98.7

----------
tested on: SK-MEL-5 melanoma; test: NCI-60 one-dose screen, 48 h; details: 10 µM unless noted
The panel holds about 83,000 compounds, 20% with a hit somewhere; the sample as a whole holds those more often. Calls of active or inactive are those of the source. The calls were made as follows: active = growth percent below 10; inactive = the rest.
I would appreciate it if you answered using one of these outcomes: T for active, F for inactive

Illustrative cases are given below, each with its answer.
CCCCCCCCc1ccc(CCC(N)(CO)CO)cc1 = F
C=CCNC(=S)NNc1ccc([N+](=O)[O-])cn1 = F
CCOC(=O)C1=NN(c2ccccc2)C2=NC(=O)/C(=C\c3cn(-c4ccccc4)nc3-c3cc4ccccc4o3)C(=O)N12 = F
O=C(CCl)NC1c2ccccc2Oc2ccccc21 = F
Cc1nn(-c2ccccc2)c(N)c1N=C1NC(=O)/C(=C/c2ccc(Cl)cc2)S1 = F
COCn1c(C(=O)OC)cc2oc(/C=C3/SC(=S)N(N)C3=O)cc21 = F
CC[n+]1c(C)ccc2cc(C)ccc21 = F
CCCCCCCCCCC(C[N+](C)(C)C/C=C/c1ccccc1)C(O)c1ccccc1 (stereo unspecified) = F

Field: outcome | Entry: COc1ccc(CNCCCN2C(=O)c3ccc4c5c(ccc(c35)C2=O)C(=O)N(CCCNCc2ccc(OC)c(OC)c2OC)C4=O)c(OC)c1OC
T

In this assay, the call recorded for CC(C)(CNC1CCCCC1)OC(=O)c1ccccc1 was what?
F

For CC1=C(C)C[C@]2(C(=O)O[C@H]3CCCC[C@@H]32)[S@](=O)C1 , what call appears in the results of this test?
F

----------
tested on: MDA-MB-435 melanoma; test: NCI-60 one-dose screen, 48 h (100 = growth as untreated, 0 = no growth, -100 = all killed); details: 10 µM unless noted
Compounds without any hit were thinned out: in the full panel of roughly 83,000, 20% have a hit.
Measurement Name: growth (%)
Could you give me the number in %? Just the number is fine.

Example results:
O=C(CBr)OCc1ccc([N+](=O)[O-])o1 = 107
CCCCCCCCCC(C)NC(=O)CCl (stereo not drawn) = 96.3
N=C(N)c1ccc(-c2ccc(-c3cc(Cl)cc(Cl)c3)s2)cc1 = -90.2
Cc1nc(NC(=O)NC2CCCCC2)sc1C(=O)NN = 115
CCCCS(=O)(=O)c1cc(Nc2ccc(O)c3c2C(=O)c2ccccc2C3=O)ccc1C = -85.7

// query growth value for entry NC(N)=N/N=C/c1cccc(Br)c1
105

Using the record for COc1cc2c(c(OC)c1OC)C(=O)CC(c1cccc(C(=O)Nc3cccc(Br)c3)c1)O2 (stereo not drawn) , report its growth.
69.3

State the recorded growth for this entry: COc1ccc2c(c1)/C(=C1/S/C(=N/c3nnc(C)s3)NC1=O)C(=O)N2Cc1ccc(Br)cc1
39.3

I would be grateful if you could share the reported growth for Cc1ccc(C(=O)NN)cc1 .
109

Which growth value belongs to CCOC(=O)C1=C(C(F)(F)F)NC(=O)NC1CN1C(=O)c2ccccc2C1=O (stereo not drawn) ?
108

Recorded growth for O=C(Nc1ccc(-n2cc(-c3ccncc3)c(-c3ccc(Cl)c(O)c3)n2)cc1)Nc1cc(C(F)(F)F)cc(C(F)(F)F)c1 , please?
6.62

Need growth, item O=C(O)/C(Br)=C/c1c[nH]c2ccc(Br)cc12
117

What value of growth has been recorded for this entry: O=C(/C=C1\C(=O)N(Cc2ccc([N+](=O)[O-])cc2)c2ccccc21)c1ccc(OCCN2CCCCC2)cc1
22.5

Consider the molecule COc1ccc(C(=O)N2N=C(c3ccc(Br)cc3)CC2c2cn(-c3ccccc3)nc2-c2ccccc2)cc1 (stereo not drawn) and give its measured growth.
48.6

I'd like to know its growth. The molecule in question is C=CC1CN2CCC1CC2C(O)c1ccnc2ccc(OC)cc12 (stereo not drawn)
100

Query: growth; subject: S=C(N/N=C/c1cc(Cl)cc(Cl)c1)NC12CC3CC(CC(C3)C1)C2
78.4

I have this molecule here, CCC(C)CC(N)O (stereo not drawn) , and I need its recorded growth.
104

Consider the molecule shown here: CC(C)(C)C(=O)CCCCCCCC/C=C/CCCC(O)c1ccco1 (stereo not drawn) What is its recorded growth?
113

Consider the molecule COC(=O)c1c[n+]([O-])ccc1OC and give its measured growth.
102

# get_value(readout='growth', item= O=P(OCCCl)(OCCCl)C(O)c1ccccc1Cl (stereo not drawn) )
102

Look up growth for this molecule: COc1ccc2nc3cc(Cl)ccc3c(NCCCNC(C)=O)c2c1
41.3

Quick one: growth for CC1(c2ccc(Br)cc2)NC(=O)NC1=O (stereo not drawn) ?
113

So what does the record say about growth for O=C1C(Br)=CC2C1C1C3CCC3C2(Br)C12OCCO2 (stereo not drawn) ?
23.7

Returns the measured growth for the input molecule. Input: Cc1ccc(S(=O)(=O)N/N=C2\CC3CCC2C3)cc1 (stereo not drawn)
103

Quick check: growth of CCCCCCCCC1OC1CCCCCCCC(=O)O (stereo not drawn) ?
107

Entry CCN(CC)CCCNc1c2ccc(Cl)cc2nc2ccc(OC)cc12 has what growth?
-90.5

// growth lookup, key: COc1cc(N)c2nccc(C)c2c1OC
110

Look up growth: N#Cc1c2cccnc2c2nnc3cc(Cl)c(Cl)cc3n12
84.4

Look at this molecule and give its reported growth. C/C(=N\Nc1ccc(Cl)cn1)c1ccc2ccccc2n1
31.9
